- Test system: HCT-15 colon
- assay-info: NCI tumour cell line growth inhibition, 48 h
parameter-measured: TGI (µM)
Use µM as the unit, but write only the number.

// below: answered molecules
>  <molecule>
Clc1nc(Cl)c2ncn(Cc3ccccc3Cn3cnc4c(Cl)nc(Cl)nc43)c2n1

>  <parameter-measured>
TGI

>  <unit-of-measurement>
µM

>  <numeric-readout>
3.32

$$$$
>  <molecule>
O=C(N[C@@H](Cc1coc2ccccc12)B(O)O)[C@@H]1C[C@H]2CC[C@@H]1O2

>  <parameter-measured>
TGI

>  <unit-of-measurement>
µM

>  <numeric-readout>
84.9

$$$$
>  <molecule>
Cc1cc(NCCCCNc2ccnc3cc(Cl)ccc23)nc(Nc2ccc(C(=O)N3CCCCC3)cc2)n1

>  <parameter-measured>
TGI

>  <unit-of-measurement>
µM

>  <numeric-readout>
3.13

$$$$

For `CCCCCCCCCCCC(=O)OC[C@@H](C[As](=O)(O)O)OC(=O)CCCCCCCCCCC` , write its TGI.
24.1

For C1=NC(N(Cc2ccccc2)Cc2ccccc2)N(Cc2ccccc2)N1 (stereo not given) , write its TGI.
34.4

For CCC[CH2][Sn]1([CH2]CCC)[O]CC(COc2c(Cl)cc(Cl)cc2Cl)[O]1 (stereo not given) , write its TGI.
3.31

For `CN(C)CCNc1nc2ccccc2c2c(=O)c3cc(F)ccc3sc12` , write its TGI.
3.08

For `CN(C)CCCNc1ccc2ncn3c4ccc(O)cc4c(=O)c1c23` , write its TGI.
16.8

For COc1cc(/C=C2\CCC/C(=C\c3ccc(OCC4CO4)c(OC)c3)C2=O)ccc1OCC1CO1 (stereo not given) , write its TGI.
4.59

For O=C1OCC2OC(=O)c3cc(O)c(O)c(O)c3-c3c(O)c(O)c(O)c4c3C(=O)OC(C2OC(=O)c2cc(O)c(O)c(O)c2-c2c1cc(O)c(O)c2O)C1OC(=O)C2C4=C(O)C(=O)C23Oc2cc(O)c4c(c2[C@H]13)O[C@H](c1ccc(O)c(O)c1)[C@@H](O)C4 (stereo not given in full) , write its TGI.
44.7

For `C=CCn1c(SCC(=O)Nc2ccc(C(=O)/C=C/c3cc(OC)c(OC)c(OC)c3)cc2)nnc1-c1ccc(OC)cc1` , write its TGI.
1.26

====

- Tested on: K-562 leukemia
- assay-info: NCI tumour cell line growth inhibition, 48 h
The entries below come with measured TGI values attached.

For CC(C)(C)OC(=O)N1C2CCCC23O[C@@H]1c1cc2c(cc1C3=O)OCO2 (stereo partly drawn) , write its TGI.
> 100 µM

For `CCCC(=O)[O-].CCCC(=O)[O-].NCCN.NCCN.[Co+3].[O-][Cl+3]([O-])([O-])[O-]` , write its TGI.
> 100 µM

For `CCOC(=O)C(C)(c1c(C)[nH]c2ccccc12)c1c(C)[nH]c2ccccc12` , write its TGI.
42.4 µM

For `Cc1ccc2occ/c(=N\Nc3ccccc3)c2c1` , write its TGI.
> 100 µM

For `CCCO[C@@H]1[C@@H](OC(C)=O)[C@@H](OC(C)=O)C(C)(C)/C=C/[C@H](C)C(=O)[C@@]2(OC(C)=O)C[C@@](C)(OC(C)=O)[C@H](OC(C)=O)[C@@H]2[C@H]2OC(=O)CC[C@@]12OC(=O)c1ccccc1` , write its TGI.
> 25 µM

For `CN(C)CCNC(=O)c1cccc2[nH]c(-c3ccccn3)nc12` , write its TGI.
> 100 µM

For COc1ccc(C2c3cc4c(cc3OC(N3CCOCC3)C2C)OCO4)cc1 (stereo not drawn) , write its TGI.
> 31.6 µM

For CS(=O)(=O)N1CC(CCl)c2ccc(O)cc21 (stereo not drawn) , write its TGI.
> 100 µM
